For each entry below, report its IC50 value.
targetDesc: KRAS G12C (Homo sapiens (Human), UniProt P01116, C118A/G12C)
Sequence (P01116 other isoform, or with tags, fused parts or gaps G12C/C118A): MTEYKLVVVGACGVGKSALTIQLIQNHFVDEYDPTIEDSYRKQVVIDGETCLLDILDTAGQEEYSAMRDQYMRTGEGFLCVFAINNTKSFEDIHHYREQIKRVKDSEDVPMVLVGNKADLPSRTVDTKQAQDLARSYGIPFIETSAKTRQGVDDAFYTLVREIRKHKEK
method: 2 h coupled exchange assay
Assay type: biochemical
experimentalSetup: Avg 2 h Coupled exchange IC50, 2 h compound pre-incubation
Dear colleague, please return just the value in nM, with no unit written.

Ask | Data request, read-out IC50, for C=CC(=O)N1CC2(CCN(c3nc4c(c(-c5c(C)ccc6cnn(C)c56)c3F)COC(C)(C)C4)C2)C1 [Example 14-71]
Reply | 781

Ask | Quick one: IC50 for C=CC(=O)N1CC2(CCN(c3nc4c(c(-c5c(F)cccc5Cl)c3C#N)COC(c3scnc3C)C4)C2)C1 (centres unmarked) ?
Reply | 272

Ask | Would you mind telling me what IC50 value was observed for C=CC(=O)N1CC2(CCN(c3nc4c(c(-c5c(C)c(Cl)cc6cnn(C)c56)c3C)COC(C)(C)C4)C2)C1 [Example 14-87] ?
Reply | 39

Ask | Item under review: C=CC(=O)N1CC2(CCN(c3nc4c(c(-c5ccc(F)cc5)c3C#N)CCC(c3scnc3C)=C4)C2)C1 . Reported IC50?
Reply | 132

Ask | For the compound shown here, C=CC(=O)N1CC2(CCN(c3nc4cc(-c5scnc5C)cnc4c(-c4ccccc4F)c3C#N)C2)C1 , give the reported IC50.
Reply | 116

Ask | Look at this compound and give its reported IC50. C=CC(=O)N1CC2(CCN(c3nc4cc(-c5scnc5COC)ccc4c(-c4ccccc4F)c3C#N)C2)C1
Reply | 124

Ask | Fill in the blank: the reported IC50 of C=CC(=O)N1CC2(CCN(c3nc4c(c(-c5ccccc5Cl)c3C#N)CCN(c3scnc3C)C4)C2)C1 (single isomer, unassigned) [Example 21-22] is ____.
Reply | 34

Ask | Would you kindly share the measured IC50 for C=CC(=O)N1CC2(CCN(c3nc4c(c(-c5ccccc5Cl)c3C#N)CCN(c3scnc3C)C4)C2)C1 [Example 21-11] ?
Reply | 33

Ask | If you can, please state the reported IC50 value of C=CC(=O)N1CC2(CCN(c3nc4c(c(-c5ccc(F)cc5Cl)c3C#N)CCC(c3scnc3C)=C4)C2)C1 [Example 23-18] .
Reply | 104

Ask | // lookup IC50 for C=CC(=O)N1CC2(CCN(c3nc4c(c(-c5ccccc5Cl)c3C#N)COC(c3scnc3C)C4)C2)C1 (centres unmarked)
Reply | 196

Ask | Report IC50 for C=CC(=O)N1CC2(CCN(c3nc4cc(-c5scnc5C)ccc4c(-c4ccccc4Cl)c3C)C2)C1 please.
Reply | 478

Ask | What measured IC50 goes with C=CC(=O)N1CC2(CCN(c3nc4cc(-c5scnc5C)ccc4c(-c4ccccc4Cl)c3C#N)C2)C1 (single isomer, unassigned) [Example 20-4] ?
Reply | 69

Ask | I have this compound here, C=CC(=O)N1CC2(CCN(c3nc4c(c(-c5ccccc5F)c3C#N)CCN(C(=O)[C@@H]3CCCN3C)C4)C2)C1 , and I need its recorded IC50.
Reply | 911

Ask | Endpoint output: IC50 of C=CC(=O)N1CC2(CCN(c3nc4c(c(-c5cccc(F)c5O)c3C#N)CCN(c3scnc3C)C4)C2)C1 . Value?
Reply | 35

----------
targetDesc: KRAS G12C (Homo sapiens (Human), UniProt P01116, C118A/G12C)
method: 2 h coupled exchange assay
Format: biochemical
experimentalSetup: Avg 2 h Coupled exchange IC50, 2 h compound pre-incubation
What pIC50 was measured for each of the following?
Scale note: pIC50 = -log10(concentration in M).

Ask | Record C=CC(=O)N1CC2(CCN(c3nc4c(c(-c5ccccc5F)c3C#N)CCN(c3scnc3C)C4C)C2)C1 (stereo not shown) : what is its pIC50 with KRAS G12C (Homo sapiens (Human), UniProt P01116, C118A/G12C)?
Reply | 7.07

Ask | What measured pIC50 is associated with C=CC(=O)N1CC2(CCN(c3nc4c(c(-c5cc(OC)ccc5F)c3C#N)CCC(c3scnc3C)=C4)C2)C1 on KRAS G12C (Homo sapiens (Human), UniProt P01116, C118A/G12C)?
Reply | 6.87

Ask | Give KRAS G12C (Homo sapiens (Human), UniProt P01116, C118A/G12C) pIC50 for C=CC(=O)N1CC2(CCN(c3nc4c(c(-c5cc(O)cc6ccccc56)c3C)COC(C)(C)C4)C2)C1 [Example 14-26]
Reply | 7.17

Ask | Please provide the recorded pIC50 for C=CC(=O)N1CC2(CCN(c3nc4c(c(-c5cccc6cc(O)ccc56)c3C)COC(C)(C)C4)C2)C1 (single isomer, unassigned) [Example 14-44] , tested on KRAS G12C (Homo sapiens (Human), UniProt P01116, C118A/G12C).
Reply | 7.15
